FYI, the data here is from ChEMBL document CHEMBL1149660.

Experiment: Inhibition of Na/K-ATPase in porcine cerebral cortex
Assay type: tissue-based, Sus scrofa
Quantity name: pIC50
Answers are plain numbers, as −log10 of the molar value.

See these solved cases before continuing.
given_smiles=C[C@H]1O[C@@H](O[C@H]2CC[C@]3(C=O)[C@H]4CC[C@]5(C)[C@@H](C6=COC(=O)C6)CC[C@]5(O)[C@@H]4CC[C@]3(O)C2)C[C@@H]2OC3(CCCCC3)O[C@@H]21 reported_value=6.39
given_smiles=C[C@H]1O[C@@H](O[C@H]2CC[C@]3(C=O)[C@H]4CC[C@]5(C)[C@@H](C6=CC(=O)OC6)CC[C@]5(O)[C@@H]4CC[C@]3(O)C2)C[C@H]2OC(C)(C)O[C@@H]12 reported_value=7.84

Could you share which pIC50 value was measured for CO[C@H]1[C@H](O)[C@H](O[C@H]2CC[C@@]3(C=O)[C@@H](CC[C@@H]4[C@H]3CC[C@]3(C)[C@@H](c5ccc(=O)oc5)CC[C@]43O)C2)O[C@@H](C)[C@@H]1O ? 7.25
